- System: guinea pig taenia-coli
- PROTOCOL_NOTES: Inhibitory effect on contractile response induced by potassium chloride (Anti-KCl), isolated taenia-coli
- Format: cell-based
- ASSAY_CONTEXT: Cavia porcellus; guinea pig taenia-coli, potassium chloride 40 mM, test compound applied 5 minutes before; read-out: IC50 (g/ml) Anti-KCl
REPORTED_METRIC: IC50 (µg/mL)
Numbers only, in µg/mL.

Record excerpt, results attached:
                                   compound  reported_metric  reading
0  CCN(CC)CCOC(=O)C(c1noc2ccc(Cl)cc12)C1CCCCC1 (centres unmarked) [Example 10]             IC50      3.3
1  CCN(CC)CC(C)OC(=O)C(c1noc2ccccc12)C1CCCCC1 (centres unmarked) [Example 4]             IC50      1.6
2  Br.CCN(CC)CCCOC(=O)C(c1noc2ccccc12)C1CCCCC1 (centres unmarked) [Example 1]             IC50     0.85
3  CCN(CC)CC(C)OC(=O)C1CCCCC1(O)C1CCCCC1 (centres unmarked) [Rociverine, reference compound]             IC50      5.4
4  O=C(OCCN1CCCCC1)C(c1noc2ccccc12)C1CCCCC1 (centres unmarked) [Example 9]             IC50      2.7

Hi there! I need IC50 for each item below, if you can.
1. CN1CCC(OC(=O)C(Cc2ccccc2)(Cc2ccccc2)c2noc3ccccc23)CC1 [Example 28]
2. CCN(CC)CCOC(=O)C(c1noc2ccccc12)C1CCCCC1 (centres unmarked) [Example 3]
3. CN1CCC(OC(=O)C(c2noc3ccc(Cl)cc23)C2CCCCC2)CC1.O=C(O)C(=O)O (centres unmarked) [Example 2]

1. 0.56
2. 1
3. 3.2
